Can you tell me growth inhibition for the items I'm about to list?
# assay.overview: NCI Yeast Anticancer Drug Screen. Data for the mec2-1 strain (AID 157)
# reported.conditions: S. cerevisiae mec2-1 strain, at 50.0 µM (retest, dose inferred, filed as 5.0), stronger effect = higher value
The panel holds about 79,000 compounds, 15% with a hit somewhere; the sample as a whole holds those more often.
One number for each entry, in %.

* CC(C)c1ccc(C=Nc2ccc(SSc3ccc(N=Cc4ccc(C(C)C)cc4)cc3)cc2)cc1 | 1
* CC(NC(=O)/C(C#N)=C/c1ccc2[nH]ccc2c1)c1ccccc1 (stereo unspecified) | 95
* CC(=O)Nc1nc([N+](=O)[O-])c(C(C)C)s1 | 4
* O=c1cc[nH]c2ccccc12 | 63
* CN1C(c2ccccc2)CC(=NO)CC1c1ccccc1 (stereo unspecified) | 45
* COc1ccc2c(c1)c[n+](C)c1c3cc(OC)c(OC)cc3ccc21 | 20

Batch lookup, growth inhibition per entry.
1. COc1cccc(NC(=S)C(C#N)C(=O)Nc2cccc(C(F)(F)F)c2)c1 (stereo unspecified)
2. CCc1nc(N)nc(N)c1-c1ccc(Cl)c(N=[N+]=[N-])c1
3. CCCCCCCCCCCCCCCCOP(=O)(O)OCC(NC(C)=O)C(=O)O (stereo unspecified)

### Response
1: 97; 2: 21; 3: 100

Batch lookup, growth inhibition per entry.
1. Clc1c(C(Cl)(Cl)Cl)nsc1N1CCCCC1
2. CC[N](CC)[Ge]([CH2]C)[CH2]C.C[CH2][Ge]([CH2]C)[CH2]C

### Response
1: 51; 2: 100

meta.source: PubChem BioAssay (NCI)
